Reported Hill coefficient values for a set of compounds
target.system: human dopamine transporter (hDAT) (Homo sapiens)
Sequence (Q01959 whole entry): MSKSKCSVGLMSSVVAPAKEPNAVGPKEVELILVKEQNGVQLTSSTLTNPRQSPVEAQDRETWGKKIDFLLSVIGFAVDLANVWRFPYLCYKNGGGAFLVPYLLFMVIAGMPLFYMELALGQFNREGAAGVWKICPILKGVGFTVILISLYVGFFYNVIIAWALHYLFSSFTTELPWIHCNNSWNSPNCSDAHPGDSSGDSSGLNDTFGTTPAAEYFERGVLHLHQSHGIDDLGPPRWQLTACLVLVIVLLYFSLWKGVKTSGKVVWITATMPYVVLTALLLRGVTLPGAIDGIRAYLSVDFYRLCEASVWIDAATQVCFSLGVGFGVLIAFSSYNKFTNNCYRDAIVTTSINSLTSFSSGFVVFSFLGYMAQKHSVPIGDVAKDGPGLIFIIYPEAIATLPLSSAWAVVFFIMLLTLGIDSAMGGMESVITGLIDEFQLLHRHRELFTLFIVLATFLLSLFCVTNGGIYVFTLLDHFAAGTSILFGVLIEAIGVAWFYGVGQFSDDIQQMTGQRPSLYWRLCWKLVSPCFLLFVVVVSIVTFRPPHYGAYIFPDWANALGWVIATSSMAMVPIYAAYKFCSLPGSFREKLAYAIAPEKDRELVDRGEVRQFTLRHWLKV
assay.protocol: biochemical
Type: binding
Lab note: write the figure by itself, no unit.

Examples from the recorded data:
{"columns": ["compound", "target.system", "Hill coefficient"],
 "data": [
  ["Fc1ccc(C(OCCCCN2CCN(c3cccc(C(F)(F)F)c3)CC2)c2ccc(F)cc2)cc1 [Compound 31532]", "human dopamine transporter (hDAT) (Homo sapiens)", "−0.87"],
  ["Fc1ccc(C(OCCCCN2CCN(c3ccc(Cl)cc3)CC2)c2ccc(F)cc2)cc1 [Compound 31652]", "human dopamine transporter (hDAT) (Homo sapiens)", "−1.08"],
  ["Fc1ccc(C(OCCCCN2CCN(c3ccccc3Cl)CC2)c2ccc(F)cc2)cc1 [Compound 31626]", "human dopamine transporter (hDAT) (Homo sapiens)", "−1.11"]
]}

Now consider a different compound.
OC1(c2ccc(Br)cc2)CCN(CCCCOC(c2ccc(F)cc2)c2ccc(F)cc2)CC1 [Compound 31530] yielded Hill coefficient of −0.59
